- TARGET UNDER TEST: human MC-5R (Homo sapiens, UniProt P33032)
- Sequence (P33032 whole entry): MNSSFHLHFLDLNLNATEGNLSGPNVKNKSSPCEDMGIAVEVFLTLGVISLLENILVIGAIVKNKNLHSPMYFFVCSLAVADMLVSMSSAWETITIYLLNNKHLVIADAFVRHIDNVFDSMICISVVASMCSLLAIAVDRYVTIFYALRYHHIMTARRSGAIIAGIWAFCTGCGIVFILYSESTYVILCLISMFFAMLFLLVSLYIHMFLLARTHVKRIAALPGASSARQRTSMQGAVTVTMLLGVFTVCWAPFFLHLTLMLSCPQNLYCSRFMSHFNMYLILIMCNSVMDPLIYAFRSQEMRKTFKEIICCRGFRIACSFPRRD
- ASSAY NOTES: Functional cell based cAMP assay
- REPORTED CONDITIONS: human receptor; cAMP; average of at least 3 determinations
QUANTITY: EC50

Could you share which EC50 value was measured for O=C(N[C@H](Cc1ccc(Cl)cc1)C(=O)N1CCC(Cn2cncn2)(C2CCCCC2)CC1)[C@H]1Cc2ccccc2CN1 ?
530 nM
